# target-system: human FPR2 (Homo sapiens)
# Sequence (P25090 1-351): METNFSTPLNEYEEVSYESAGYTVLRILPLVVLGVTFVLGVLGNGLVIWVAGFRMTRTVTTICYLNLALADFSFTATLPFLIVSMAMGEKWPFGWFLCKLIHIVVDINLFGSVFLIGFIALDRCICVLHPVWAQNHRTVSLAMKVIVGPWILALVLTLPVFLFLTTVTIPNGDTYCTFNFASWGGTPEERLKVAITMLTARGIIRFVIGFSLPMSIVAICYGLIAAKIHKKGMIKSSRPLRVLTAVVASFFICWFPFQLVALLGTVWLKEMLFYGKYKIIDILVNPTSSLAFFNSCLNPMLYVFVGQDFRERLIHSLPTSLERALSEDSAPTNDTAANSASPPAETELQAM
# protocol-description: FPR2 cyclic adenosine monophosphate (cAMP) assay
# conditions: CHO cells overexpressing human FPR2; forskolin 5 μM; inhibition of cAMP production; HTRF; read-out: hFPR2 cAMP2 EC50
experimental-endpoint: pEC50
As a rule, pEC50 stands for the negative log10 of the concentration, concentration in M.

Recorded pEC50 for COc1cc(F)c(-c2c(NC(=O)c3ccc(OC(F)F)cc3)c(=O)n(-c3nc(N4CCCC4C(F)(F)F)ccc3C(F)(F)F)n2C)c(F)c1 (stereo not shown) [Example 302] with human FPR2 (Homo sapiens), please?
9.00

// query: COc1cc(F)c(-c2c(NC(=O)c3ccc(OC(F)F)cc3)c(=O)n(Cc3nnc(C(C)C)o3)n2C)c(F)c1 [Example 57]
6.82

Next molecule up: COc1cccc(-n2c(=O)c(NC(=O)c3ccc(OC(F)F)cc3)c(-c3ccc(OC(F)F)cc3)n2C)n1 [Example 315]
7.52

Similarly, COc1cc(F)c(-c2c(NC(=O)c3ccc(OC(F)F)cc3)c(=O)n(-c3nc(OC)ccc3C#N)n2C)c(F)c1 [Example 185] ?
8.30

---

# target-system: human FPR1 (Homo sapiens, UniProt P21462)
# Sequence (P21462 whole entry): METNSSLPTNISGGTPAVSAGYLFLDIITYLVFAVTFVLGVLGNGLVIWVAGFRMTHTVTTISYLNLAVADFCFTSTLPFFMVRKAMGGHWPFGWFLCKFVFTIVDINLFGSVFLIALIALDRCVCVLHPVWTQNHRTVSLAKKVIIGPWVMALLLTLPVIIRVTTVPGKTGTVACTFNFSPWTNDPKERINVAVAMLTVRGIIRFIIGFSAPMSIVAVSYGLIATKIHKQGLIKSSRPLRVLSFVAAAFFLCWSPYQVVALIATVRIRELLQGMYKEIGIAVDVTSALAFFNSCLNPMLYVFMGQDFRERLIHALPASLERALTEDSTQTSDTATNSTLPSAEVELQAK
# protocol-description: FPR1 cyclic adenosine monophosphate (cAMP) assay
# conditions: CHO cells overexpressing human FPR1; forskolin 10 μM; inhibition of cAMP production; HTRF; read-out: hFPR1 cAMP2 EC50
experimental-endpoint: EC50 (µM)
A number alone suffices; assume µM.

Report EC50 for COc1ccc(-c2c(NC(=O)c3ccc(OC(F)F)cc3)c(=O)n(-c3ncccc3Cl)n2C)cc1 tested on human FPR1 (Homo sapiens, UniProt P21462).
1.2

Next molecule up: Cn1c(-c2c(F)cc(C(F)(F)F)cc2F)c(NC(=O)c2ccc(OC(F)F)cc2)c(=O)n1-c1cccc(C(C)(C)O)n1
1.8

Item: COc1cc(N2C[C@@H](C)N(C)[C@@H](C)C2)nc(-n2c(=O)c(NC(=O)c3ccc(OC(F)F)cc3)c(-c3c(F)cc(OC)cc3F)n2C)c1
1.8

Can you check Cn1c(-c2ccc(Cl)cc2)c(NC(=O)c2ccc(OC(F)F)cc2)c(=O)n1-c1ncccc1C(F)(F)F next?
0.51

COc1cc(F)c(-c2c(NC(=O)c3ccc(OC(F)F)cc3)c(=O)n(-c3nc(N4CCN(CC(F)F)CC4)ccc3Cl)n2C)c(F)c1 , same question.
1.3

---

# target-system: UniProtKB P25090
# protocol-description: FPR2 cyclic adenosine monophosphate (cAMP) assay
# conditions: CHO cells overexpressing human FPR2; forskolin 5 μM; inhibition of cAMP production; HTRF; read-out: hFPR2 cAMP2 EC50
For each record, write down the corresponding EC50.
Answers without a unit are incomplete; give the number and then its unit.

Reported EC50 for COc1cc(F)c(-c2c(NC(=O)c3ccc(OC(F)F)cc3)c(=O)n(-c3nc(N4CCN(C)CC4)ccc3F)n2C)c(F)c1 [Example 219] : what is it?
10 nM

What about COc1cc(F)c(-c2c(NC(=O)c3ccc(OC(F)F)cc3)c(=O)n(-c3nc(N4CC(F)(F)C4)ccc3Cl)n2C)c(F)c1 [Example 145] ?
3 nM

Consider next the molecule COc1cc(F)c(-c2c(NC(=O)c3ccc(OC(F)F)cc3)c(=O)n(-c3nc(NC4CC4)ccc3C(F)(F)F)n2C)c(F)c1 [Example 251] in the same way.
2 nM

---

# target-system: human FPR1 (Homo sapiens, UniProt P21462)
# protocol-description: FPR1 cyclic adenosine monophosphate (cAMP) assay
# conditions: CHO cells overexpressing human FPR1; forskolin 10 μM; inhibition of cAMP production; HTRF; read-out: hFPR1 cAMP2 EC50
pEC50: −log10 of the molar value.
experimental-endpoint: pEC50

Name the reported pEC50 value associated with the molecule COc1cc(F)c(-c2c(NC(=O)c3ccc(OC(F)F)cc3)c(=O)n(-c3cccc(OC)c3C#N)n2C)c(F)c1
< 5.00

Same for COc1cc(C2CCOCC2)nc(-n2c(=O)c(NC(=O)c3ccc(OC(F)F)cc3)c(-c3c(F)cc(OC)cc3F)n2C)c1
< 5.00

Next molecule up: COc1ccnc(-n2c(=O)c(NC(=O)c3ccc(OC(F)F)cc3)c(-c3c(F)cc(OC)cc3F)n2C)c1
< 5.00

Can you check COc1cc(F)c(-c2c(NC(=O)c3ccc(OC(F)F)cc3)c(=O)n(-c3ccc(C)cn3)n2C)c(F)c1 next?
5.17

Item: COc1cc(OCC2CCCO2)nc(-n2c(=O)c(NC(=O)c3ccc(OC(F)F)cc3)c(-c3c(F)cc(OC)cc3F)n2C)c1 (centres unmarked) [Example 350]
< 5.00

And what about the molecule CC(C)Oc1cc(OCCO)nc(-n2c(=O)c(NC(=O)c3ccc(OC(F)(F)F)cc3)c(-c3c(F)cc(Cl)cc3F)n2C)c1 ?
6.23

Now the molecule [2H]C([2H])([2H])Oc1cc(F)c(-c2c(NC(=O)c3ccc(OC(F)F)cc3)c(=O)n(-c3cc(C(F)F)ccn3)n2C)c(F)c1
< 5.00

And for COc1cc(F)c(-c2c(NC(=O)c3ccc(OC(F)F)cc3)c(=O)n(-c3cccc(N4CC(C)(O)C4)n3)n2C)c(F)c1 ?
5.70

Item: COc1cc(C2CCCN(C)C2)nc(-n2c(=O)c(NC(=O)c3ccc(OC(F)F)cc3)c(-c3c(F)cc(OC)cc3F)n2C)c1 (centres unmarked) [Example 343]
< 5.00

Item: COc1cc(F)c(-c2c(NC(=O)c3ccc(OC(F)F)cc3)c(=O)n(-c3cc(C)cc(OC4CCOC4)n3)n2C)c(F)c1 (centres unmarked) [Example 360]
< 5.00

What about this molecule? COc1cc(F)c(-c2c(NC(=O)c3ccc(OC(F)F)cc3)c(=O)n(-c3cc(C(F)(F)F)ccn3)n2C)c(F)c1
< 5.00

Repeat with COC(=O)COc1ccc(C(F)(F)F)c(-n2c(=O)c(NC(=O)c3ccc(OC(F)F)cc3)c(-c3c(F)cc(OC)cc3F)n2C)n1
< 5.00

Repeat with COc1cc(F)c(-c2c(NC(=O)c3ccc(OC(F)F)cc3)c(=O)n(-c3cc(C)cc(C)n3)n2C)c(F)c1
< 5.00

Now give it for COc1cc(F)c(-c2c(NC(=O)c3ccc(OC(F)F)cc3)c(=O)n(-c3cc(F)cc(C(C)(C)O)c3)n2C)c(F)c1 too.
5.82

Moving on to the next molecule: COc1cc(F)c(-c2c(NC(=O)c3ccc(OC(F)F)cc3)c(=O)n(-c3nc(N4CCN(CC(F)(F)F)CC4)ccc3C(F)(F)F)n2C)c(F)c1
5.48

Query CCc1ccc(N2CCN(C)CC2)nc1-n1c(=O)c(NC(=O)c2ccc(OC(F)F)cc2)c(-c2c(F)cc(OC)cc2F)n1C next
< 5.00

Next: COc1cc(F)c(-c2c(NC(=O)c3ccc(OC(F)(F)F)cc3)c(=O)n(-c3cc(C(F)(F)F)ccn3)n2C)c(F)c1
< 5.00

Now this one: COc1cc(C2CCCN(CCO)C2)nc(-n2c(=O)c(NC(=O)c3ccc(OC(F)F)cc3)c(-c3c(F)cc(OC)cc3F)n2C)c1 (centres unmarked) [Example 340]
< 5.00

Subsequent entry: COc1cc(F)c(-c2c(NC(=O)c3ccc(OC(F)F)cc3)c(=O)n(-c3nc(OC)ccc3C(F)(F)F)n2C)c(F)c1
< 5.00

Try COc1cc(F)c(-c2c(NC(=O)c3ccc(Cl)cc3)c(=O)n(-c3ccc(F)cc3)n2C)c(F)c1 next.
< 5.00

What would you report for COc1cc(OCC2CCCO2)nc(-n2c(=O)c(NC(=O)c3ccc(OC(F)F)cc3)c(-c3c(F)cc(OC)cc3F)n2C)c1 (centres unmarked) [Example 339] ?
< 5.00

What about COc1cc(OCC(C)(F)F)nc(-n2c(=O)c(NC(=O)c3ccc(OC(F)F)cc3)c(-c3c(F)cc(OC)cc3F)n2C)c1 ?
< 5.00

Same question, COc1cc(F)cc(-n2c(=O)c(NC(=O)c3ccc(OC(F)F)cc3)c(-c3c(F)cc(OC)cc3F)n2C)c1 this time
7.08

Further, for COc1cc(F)c(-c2c(NC(=O)c3ccc(OC(F)(F)F)cc3)c(=O)n(-c3cc(C)cc(C)n3)n2C)c(F)c1 ?
5.60

Consider next the molecule COCC(CO)Oc1cc(OC)cc(-n2c(=O)c(NC(=O)c3ccc(OC(F)F)cc3)c(-c3c(F)cc(OC)cc3F)n2C)n1 (centres unmarked) [Example 386] in the same way.
< 5.00

Record: COc1cc(F)c(-c2c(NC(=O)c3ccc(OC(F)F)cc3)c(=O)n(-c3nc(C4CC4)ccc3Br)n2C)c(F)c1
< 5.00
